# system: RGG-box (UniProt P09651-2 197-249)
# Sequence (P09651 197-249): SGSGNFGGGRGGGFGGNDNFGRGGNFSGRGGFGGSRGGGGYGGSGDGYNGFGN
# assayRemarks: NMR 15N-1H HSQC titration; apparent Kd, global fit of 14 residues (individual 151-433 uM); ITC/CD: 20 mM Tris-Cl pH 8, 100 mM NaCl or KCl, 25 C; NMR: 10 mM sodium or potassium phosphate pH 6.5, 100 mM NaCl or KCl, 298 K
# testConditions: protein: recombinant; tags: N-terminal GST removed by TEV; intramolecular G4 (monomeric)
outcomeMeasure: Kd (µM)
// units = µM; emit number, no label

The reported Kd of the binder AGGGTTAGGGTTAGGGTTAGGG (structured_DNA) [Tel22 G-quadruplex] was 349

Taken from paper PMC6212785.
